Molecular target: UniProt P48039
Assay: Intrinsic activity at human cloned MT1 receptor expressed in […] cells by [35S]GTP-gamma-S binding assay relative to melatonin
Assay type: functional, cell-based
property: Intrinsic activity

• COc1ccc2[nH]c(C(=O)OCCCCCOC(=O)c3[nH]c4ccc(OC)cc4c3CCNC(C)=O)c(CCNC(C)=O)c2c1 = 1
• COc1ccc2[nH]cc(CCNC(=O)CCCCCCCCC(=O)NCCc3c[nH]c4ccc(OC)cc34)c2c1 = 0.81
• COc1ccc2[nH]c(C(=O)OCCCCCCCCCCOC(=O)c3[nH]c4ccc(OC)cc4c3CCNC(C)=O)c(CCNC(C)=O)c2c1 = 0.79

----------
Notes on pKi obtained with Melatonin receptor type 1A (Homo sapiens).
Sequence (P48039 whole entry): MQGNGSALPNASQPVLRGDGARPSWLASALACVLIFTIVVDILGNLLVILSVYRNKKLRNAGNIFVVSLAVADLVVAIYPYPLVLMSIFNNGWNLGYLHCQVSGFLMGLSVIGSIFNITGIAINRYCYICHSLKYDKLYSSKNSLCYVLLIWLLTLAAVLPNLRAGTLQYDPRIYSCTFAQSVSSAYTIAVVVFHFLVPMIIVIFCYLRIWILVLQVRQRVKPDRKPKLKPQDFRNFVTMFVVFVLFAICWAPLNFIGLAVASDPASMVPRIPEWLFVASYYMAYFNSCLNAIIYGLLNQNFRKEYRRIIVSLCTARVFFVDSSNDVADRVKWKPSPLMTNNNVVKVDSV
pKi: −log10 of the molar value.
property: pKi

• COc1ccc2[nH]c(C(=O)OCCCCCCCCCOC(=O)c3[nH]c4ccc(OC)cc4c3CCNC(C)=O)c(CCNC(C)=O)c2c1 = 7.22
• COc1ccc2[nH]c(C(=O)OCCCCCCCCCCCCOC(=O)c3[nH]c4ccc(OC)cc4c3CCNC(C)=O)c(CCNC(C)=O)c2c1 = 7.59
• COc1ccc2[nH]c(C(=O)OCCCCCOC(=O)c3[nH]c4ccc(OC)cc4c3CCNC(C)=O)c(CCNC(C)=O)c2c1 = 7.70
• COc1ccc2[nH]c(C(=O)OCCCCCCCCOC(=O)c3[nH]c4ccc(OC)cc4c3CCNC(C)=O)c(CCNC(C)=O)c2c1 = 8.10
• COc1ccc2[nH]c(C(=O)OCCCCCCCOC(=O)c3[nH]c4ccc(OC)cc4c3CCNC(C)=O)c(CCNC(C)=O)c2c1 = 6.67

----------
Molecular target: Melatonin receptor type 1B (Homo sapiens)
Sequence (P49286 whole entry): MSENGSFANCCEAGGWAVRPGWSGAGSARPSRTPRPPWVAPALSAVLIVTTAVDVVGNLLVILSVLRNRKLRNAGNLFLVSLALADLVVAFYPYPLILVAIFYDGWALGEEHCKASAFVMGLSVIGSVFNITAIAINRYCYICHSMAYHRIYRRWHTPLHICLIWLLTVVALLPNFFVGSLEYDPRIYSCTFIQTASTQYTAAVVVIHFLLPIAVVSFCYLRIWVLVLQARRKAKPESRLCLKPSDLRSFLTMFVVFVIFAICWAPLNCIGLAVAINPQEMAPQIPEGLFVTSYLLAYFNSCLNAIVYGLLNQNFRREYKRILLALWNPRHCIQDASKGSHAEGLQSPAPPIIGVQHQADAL
Quick reference for Ki among some compounds
property: Ki (nM)

• COc1ccc2[nH]c(C(=O)OCCCCCCCCCCOC(=O)c3[nH]c4ccc(OC)cc4c3CCNC(C)=O)c(CCNC(C)=O)c2c1 = 15.4
• COc1ccc2[nH]c(C(=O)OCCCCCOC(=O)c3[nH]c4ccc(OC)cc4c3CCNC(C)=O)c(CCNC(C)=O)c2c1 = 62.4
• COc1ccc2[nH]c(C(=O)OCCCOC(=O)c3[nH]c4ccc(OC)cc4c3CCNC(C)=O)c(CCNC(C)=O)c2c1 = 14.3
• COc1ccc2[nH]c(C(=O)OCCCCCCCCOC(=O)c3[nH]c4ccc(OC)cc4c3CCNC(C)=O)c(CCNC(C)=O)c2c1 = 7.92
